# Tested on: Trypanosoma cruzi
# assay summary: Trypanosoma cruzi phosphomannomutase and mannose-1-phosphate guanylyltransferase assay
# Format: functional
# Parameters: scale not given: direction of the effect not stated beside the values
# assay setup: 10 µM
property label: Percent Effect (%)
Express your answer in %, writing the number without its unit.

Exam item: Return Percent Effect measured with Trypanosoma cruzi given this compound: "Cc1cc(-c2cnc(N3CCNC(=O)C3)nc2-c2cccnc2C)on1"
Marked response: 1.97

Exam item: Return Percent Effect measured with Trypanosoma cruzi given this compound: CCS(=O)(=O)N1CCC2(CC(=O)N(c3cccc(C)c3)C2)C1 (centres undefined)
Marked response: 1.54

Exam item: Return Percent Effect measured with Trypanosoma cruzi given this compound: Cc1noc(C)c1-c1cccc(CC2CCN(C(=O)CCC(=O)O)C2)n1 (centres undefined)
Marked response: 3.16

Exam item: Return Percent Effect measured with Trypanosoma cruzi given this compound: "CC(=O)NCCN1CCC(c2cccs2)CC1"
Marked response: 6.27

Exam item: Return Percent Effect measured with Trypanosoma cruzi given this compound: "Cc1cccc(OCCC(=O)N(C)CCC#N)c1C"
Marked response: -5.16

Exam item: Return Percent Effect measured with Trypanosoma cruzi given this compound: CCn1cnnc1CNC(=O)NC(C)C(C)C (centres undefined)
Marked response: -4.68

Exam item: Return Percent Effect measured with Trypanosoma cruzi given this compound: NC(=O)CSCCC(=O)N1CCCC1c1ccsc1 (centres undefined)
Marked response: 4.76

Exam item: Return Percent Effect measured with Trypanosoma cruzi given this compound: "Cc1nc[nH]c1CN1C[C@@H]2CC[C@H](C1)N(C(=O)CCNS(C)(=O)=O)C2"
Marked response: 4.57

Exam item: Return Percent Effect measured with Trypanosoma cruzi given this compound: "Cc1n[nH]c(C)c1NC(=O)CN1CCc2c(nc(C3CC3)n2C)C1"
Marked response: -9.36

Exam item: Return Percent Effect measured with Trypanosoma cruzi given this compound: CCCN(CC1COc2ccccc2O1)C(=O)CCn1cncn1 (centres undefined)
Marked response: -1.5

Exam item: Return Percent Effect measured with Trypanosoma cruzi given this compound: "Cc1ccc(CCC(=O)N(C)CCN2CCOCC2)c(C)c1"
Marked response: -0.487

Exam item: Return Percent Effect measured with Trypanosoma cruzi given this compound: "CN1N=C(C(=O)NCc2ccc3c(c2)CCCN3C)CCC1=O"
Marked response: 4.41

Exam item: Return Percent Effect measured with Trypanosoma cruzi given this compound: CCOCCn1nc(C)cc1C(=O)N1CCOCC(CO)C1 (centres undefined)
Marked response: 7.14

Exam item: Return Percent Effect measured with Trypanosoma cruzi given this compound: CC(C1CC1)N(C)C(=O)c1cnc(-c2ccc3c(c2)OCO3)s1 (centres undefined)
Marked response: -3.33

Exam item: Return Percent Effect measured with Trypanosoma cruzi given this compound: "Cc1ccc(NC(=O)c2n[nH]c(-n3cnnc3)n2)cc1C"
Marked response: 4.32

Exam item: Return Percent Effect measured with Trypanosoma cruzi given this compound: "CC(=O)NCC(=O)N1C[C@H](OCc2cccnc2)[C@H]2COC[C@H]21"
Marked response: -4.49

Exam item: Return Percent Effect measured with Trypanosoma cruzi given this compound: "CC(C)c1nnc(NC(=O)NCc2ccnc(N(C)C)c2)s1"
Marked response: -2.77

Exam item: Return Percent Effect measured with Trypanosoma cruzi given this compound: Cc1cnc2c(S(=O)(=O)NCC3CCN(C4CC4)C3)cccc2c1 (centres undefined)
Marked response: 5.32

Exam item: Return Percent Effect measured with Trypanosoma cruzi given this compound: "CC(C)Nc1nc(N2CCOCC2)nc2c1CN(CC(=O)N(C)C)CC2"
Marked response: -0.591

Exam item: Return Percent Effect measured with Trypanosoma cruzi given this compound: "Cc1ccccc1S(=O)(=O)NC(=O)CSc1ccc2c(c1)OCCO2"
Marked response: -3.21

Exam item: Return Percent Effect measured with Trypanosoma cruzi given this compound: "Cc1cc(NC(=O)Cn2cc(C#N)c(=O)c3cc(Br)ccc32)no1"
Marked response: -1.27

Exam item: Return Percent Effect measured with Trypanosoma cruzi given this compound: CN(C)S(=O)(=O)c1ccc(CN2CCCC2CO)o1 (centres undefined)
Marked response: -0.84

Exam item: Return Percent Effect measured with Trypanosoma cruzi given this compound: "CCCS(=O)(=O)Nc1ccc2c(c1)OCC(C)(C)C(=O)N2C"
Marked response: -5.09

Exam item: Return Percent Effect measured with Trypanosoma cruzi given this compound: "O=C(NCCc1nnc2n1CCC2)NC1(c2cccc(F)c2)CC1"
Marked response: -3.6

----------
# assayed target: Protein translocase subunit SecA (Escherichia coli (strain K12)) (UniProt P10408)
# Sequence (P10408 whole entry): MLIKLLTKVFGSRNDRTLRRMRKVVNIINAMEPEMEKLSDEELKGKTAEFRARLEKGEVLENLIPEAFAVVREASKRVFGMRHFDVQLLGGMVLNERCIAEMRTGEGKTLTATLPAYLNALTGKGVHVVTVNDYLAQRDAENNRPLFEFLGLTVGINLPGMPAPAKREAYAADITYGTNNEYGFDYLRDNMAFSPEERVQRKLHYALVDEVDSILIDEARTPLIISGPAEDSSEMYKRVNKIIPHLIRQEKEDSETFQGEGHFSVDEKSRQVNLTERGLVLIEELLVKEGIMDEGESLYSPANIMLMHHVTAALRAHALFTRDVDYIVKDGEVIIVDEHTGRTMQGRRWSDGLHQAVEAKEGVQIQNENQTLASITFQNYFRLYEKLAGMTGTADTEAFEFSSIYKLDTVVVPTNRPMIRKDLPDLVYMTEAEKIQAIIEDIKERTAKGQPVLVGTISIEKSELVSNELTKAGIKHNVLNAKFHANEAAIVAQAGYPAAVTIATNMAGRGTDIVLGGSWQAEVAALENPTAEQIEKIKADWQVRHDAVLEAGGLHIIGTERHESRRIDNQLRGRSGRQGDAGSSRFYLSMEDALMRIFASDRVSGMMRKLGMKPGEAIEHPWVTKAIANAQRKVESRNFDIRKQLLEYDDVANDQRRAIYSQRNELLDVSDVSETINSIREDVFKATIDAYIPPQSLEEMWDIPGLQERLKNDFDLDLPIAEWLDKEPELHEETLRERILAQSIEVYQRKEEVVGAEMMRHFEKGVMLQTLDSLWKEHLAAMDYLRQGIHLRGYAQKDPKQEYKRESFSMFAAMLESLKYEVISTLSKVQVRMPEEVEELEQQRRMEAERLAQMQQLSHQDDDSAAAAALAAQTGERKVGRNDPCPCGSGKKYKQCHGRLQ
# assay summary: Assay to Identify E. coli SecA ATPase Inhibitors
# Format: functional
# Set-up: scale not given: direction of the effect not stated beside the values
# assay setup: 30 µM
Potency and affinity values are given separately.
Answer each item with its documented Percent Effect.
Quick note: unit goes after the number.

Exam item: // returns reported Percent Effect for input "O=C(c1cc(Cl)c2c(c1)OCO2)N1CCN(c2ccccn2)CC1"
Marked response: -2.8%

Exam item: // returns reported Percent Effect for input Cc1cc(CN(Cc2cccs2)CC2CCCO2)no1 (stereo not drawn)
Marked response: -4.05%

Exam item: // returns reported Percent Effect for input CCc1cnc(CN(C)C2CCN(CCc3ccccn3)C2)o1 (stereo not drawn)
Marked response: 3.36%

Exam item: // returns reported Percent Effect for input "CN(C(=O)c1cccc(C(=O)NS(C)(=O)=O)c1)c1ccccc1"
Marked response: -5.66%

Exam item: // returns reported Percent Effect for input Cn1cc(C2CCCN2C(=O)Cc2n[nH]c3ccccc23)cn1 (stereo not drawn)
Marked response: -3.26%

Exam item: // returns reported Percent Effect for input COc1ccccc1OCC(=O)NCC(O)(c1ccccc1)C1CC1 (stereo not drawn)
Marked response: -4.08%

Exam item: // returns reported Percent Effect for input Cc1ccc(CNC2CCCc3c2cnn3C)s1 (stereo not drawn)
Marked response: -5.39%

Exam item: // returns reported Percent Effect for input "Cc1cccc(-c2noc(CN3CCC(N4CCNC4=O)CC3)n2)c1"
Marked response: -6.31%

Exam item: // returns reported Percent Effect for input "CCC1(CC)Cc2ccccc2-c2nc(CN(C)C)nc(O)c21"
Marked response: -3.62%

Exam item: // returns reported Percent Effect for input CCc1c(C)nc2n(c1=O)CC(C(=O)Nc1ccccc1F)CS2 (stereo not drawn)
Marked response: -5.58%

Exam item: // returns reported Percent Effect for input Cc1ccc(N2CC3(COCCN(Cc4cccnc4)C3)OCC2=O)s1 (stereo not drawn)
Marked response: -6.13%

Exam item: // returns reported Percent Effect for input "O=C(Cc1ccc2c(c1)CCC2)NCCNc1ncccn1"
Marked response: -2.76%

Exam item: // returns reported Percent Effect for input COC(=O)c1ccc(N2CCN(C(=O)c3ccncc3)C(C)C2)cc1 (stereo not drawn)
Marked response: -4.64%

Exam item: // returns reported Percent Effect for input CCn1ccnc1CN1CCN(C(C)C(=O)NC2CCCCC2)CC1 (stereo not drawn)
Marked response: -6.02%

Exam item: // returns reported Percent Effect for input "CN(C)C(=O)N1C[C@H](Oc2ccccn2)[C@H]2OCCC[C@H]21"
Marked response: 0.276%

Exam item: // returns reported Percent Effect for input Cc1nc(CN(C)C2CCCN(c3cccnn3)C2)no1 (stereo not drawn)
Marked response: -0.0171%

Exam item: // returns reported Percent Effect for input "Cn1cc(CN2C[C@@H]3COC[C@]3(C(=O)NCc3ccccn3)C2)cn1"
Marked response: -3.43%

Exam item: // returns reported Percent Effect for input "CCCOc1ccc(NC(=O)NCCC(=O)N(C)C)cc1Cl"
Marked response: -2.86%

Exam item: // returns reported Percent Effect for input "COc1ccc(-c2nc(CN3CC(n4nc(C)cc4C)C3)no2)cc1"
Marked response: -4.78%

Exam item: // returns reported Percent Effect for input "CCCc1nc(NCCCO)c2c(n1)c(C)nn2CC"
Marked response: -3.3%

Exam item: // returns reported Percent Effect for input CC(=O)N1CC(=O)N(c2cnn(C)c2)CC12CCN(Cc1ccsc1)C2 (stereo not drawn)
Marked response: -5.9%

Exam item: // returns reported Percent Effect for input "CCc1nnc2n1CCN(Cc1ccc3c(c1)OCCO3)C2"
Marked response: 0.332%

Exam item: // returns reported Percent Effect for input CCCc1cc(NC2CCc3ncnn3C2)n2ncnc2n1 (stereo not drawn)
Marked response: -4.43%

Exam item: // returns reported Percent Effect for input CC(=O)c1cn(CC(=O)NC(C(=O)O)C(C)C)c2ccccc12 (stereo not drawn)
Marked response: -5.18%

Exam item: // returns reported Percent Effect for input CC(=O)N(Cc1ncc(C)o1)C1CCN(Cc2noc(C)n2)C1 (stereo not drawn)
Marked response: -3.16%

Exam item: // returns reported Percent Effect for input CC(Oc1ccccc1C(F)(F)F)C(=O)NCC(N)=O (stereo not drawn)
Marked response: -4.95%

Exam item: // returns reported Percent Effect for input Cc1ccoc1C(=O)NCC(Cc1ccc(F)cc1)C(N)=O (stereo not drawn)
Marked response: -1.94%

Exam item: // returns reported Percent Effect for input CSC(C)C(=O)N1CCCN(Cc2cscn2)CC1 (stereo not drawn)
Marked response: -3.08%

Exam item: // returns reported Percent Effect for input CC(C)S(=O)(=O)NCC1CCCN(C(=O)c2ccc3c(c2)CCC3)C1 (stereo not drawn)
Marked response: -5.88%

Exam item: // returns reported Percent Effect for input Cn1cc(CN(Cc2ccccc2)CC(O)c2cccs2)cn1 (stereo not drawn)
Marked response: -2.22%

Exam item: // returns reported Percent Effect for input CCc1nc(CN(C(C)=O)C2CCN(CCc3cnn(C)c3)C2)no1 (stereo not drawn)
Marked response: -2.36%

Exam item: // returns reported Percent Effect for input c1ncn(CC2CCCCN2Cc2csc(C3CCCC3)n2)n1 (stereo not drawn)
Marked response: -2.71%

Exam item: // returns reported Percent Effect for input Cc1ccc(C(=O)N2CCN(CC(O)c3ccc(F)cc3)CC2)s1 (stereo not drawn)
Marked response: -2.93%

Exam item: // returns reported Percent Effect for input Cc1cnn(CC2CCCCN2Cc2nc(-c3ccoc3)no2)c1 (stereo not drawn)
Marked response: -1.89%

Exam item: // returns reported Percent Effect for input CCNC(=O)CN1CCCN(C(=O)C2CCCc3[nH]ncc32)CC1 (stereo not drawn)
Marked response: -3.9%

Exam item: // returns reported Percent Effect for input "CCn1cc(CN(C)S(=O)(=O)c2ccc(Cl)cc2)cn1"
Marked response: -0.763%

Exam item: // returns reported Percent Effect for input "O[C@H]1[C@H](n2cc(-c3cccnc3)nn2)c2ccccc2C12CCNCC2"
Marked response: -1.28%

Exam item: // returns reported Percent Effect for input CC(C)c1nc(C2CCCN2CC(=O)N2CCc3ccccc32)no1 (stereo not drawn)
Marked response: -3.88%

Exam item: // returns reported Percent Effect for input "Cc1ncsc1-c1nnc(C2CCN(Cc3ccc(F)cc3)CC2)o1"
Marked response: -0.551%

Exam item: // returns reported Percent Effect for input CCc1nsc(NC2CCCn3nc(COC)nc32)n1 (stereo not drawn)
Marked response: -4.32%

Exam item: // returns reported Percent Effect for input CCCC(NC(=O)c1ccc(OC)cc1F)c1nnn[nH]1 (stereo not drawn)
Marked response: -2.26%

Exam item: // returns reported Percent Effect for input "Cc1ccc(NC2CCN(C(=O)CCNS(C)(=O)=O)CC2)nn1"
Marked response: -4.31%

Exam item: // returns reported Percent Effect for input Cc1cc(C)n(CC(C)CNC(=O)[C@@H](C)NC(=O)OC(C)(C)C)n1 (stereo partly drawn)
Marked response: -2.44%

Exam item: // returns reported Percent Effect for input NC(=O)c1ccc(NC(=O)CCN2CCCC(N3CCCC3)C2)cc1 (stereo not drawn)
Marked response: -9.36%

Exam item: // returns reported Percent Effect for input CNC1CCCN(Cc2noc(C3CC3)n2)C1 (stereo not drawn)
Marked response: 0.64%

Exam item: // returns reported Percent Effect for input "CC(=O)Nc1cccc(OCCNC(=O)N(C)Cc2ccco2)c1"
Marked response: -4.59%

Exam item: // returns reported Percent Effect for input "COCCN(Cc1ccoc1)C(=O)c1cccnc1SC"
Marked response: -1.15%

Exam item: // returns reported Percent Effect for input Cc1cc(C)n(CC2CCCCN2CC(=O)Nc2nncs2)n1 (stereo not drawn)
Marked response: -3.75%
